System: T-47D breast
Test: NCI-60 one-dose screen, 48 h (100 = growth as untreated, 0 = no growth, -100 = all killed)
Conditions: 10 µM
About 83,000 compounds went through this panel and 20% of them were active in at least one assay; those are over-represented in the sample as a whole. Activity calls are given as the source filed them. The calls were made as follows: active = growth percent below 10; inactive = the rest.
test.readout: growth

Study these solved cases before continuing.
COc1cc(OC)cc(-c2cncn2-c2ccc(-c3nc4cc(OC)cc(OC)c4s3)cc2)c1
62.8% (inactive)
COc1ccc(C2CC(c3ccc(N(C)C)cc3)=NN2c2ccc(S(N)(=O)=O)cc2)cc1 (configuration not stated)
36.9% (inactive)
Cc1cn(C2CCCCO2)c(=O)nc1NO (configuration not stated)
105% (inactive)

Q: For the compound "COc1cc(Cl)cc(-c2nn(-c3cccc(NC(=O)c4ccc(Cl)c(Cl)c4)c3)cc2-c2ccncc2)c1" , give its measured growth value.
Result: 63.2% (inactive)

Q: For the compound "CC(=O)c1nc2ccccc2n1CCN1CCN(C)CC1" , give its measured growth value.
Result: 33.4% (inactive)

Q: For the compound "N=C1c2nc3n(c2C(=O)c2nc4n(c21)CCCC4)CCCC3" , give its measured growth value.
Result: 71.9% (inactive)

Q: For the compound "Cc1cc(C)c(CCc2cc(C)c(C)cc2C)cc1C" , give its measured growth value.
Result: 114% (inactive)

Q: For the compound "O=C(CCCCC(=O)Nc1ccc2c(c1)/C(=C/c1ccc[nH]1)C(=O)N2)NO" , give its measured growth value.
Result: 0.269% (active)

Q: For the compound CCCCC(CCCCCC(CCCC)NCc1ccc2c(c1)OCO2)NCc1ccc2c(c1)OCO2 (configuration not stated) , give its measured growth value.
Result: -76.6% (active)

Q: For the compound "COc1cc2nc(Nc3cccc(C(=O)O)c3)nc(N)c2cc1OC" , give its measured growth value.
Result: 105% (inactive)

----------
Test system: HS 578T breast
Assay: NCI-60 one-dose screen, 48 h
Settings: 10 µM
Compounds without any hit were thinned out: in the full panel of roughly 83,000, 20% have a hit. Active and inactive are the calls of the source. Rule for the calls: active = growth percent below 10; inactive = the rest.
Write down one outcome, taken from t (active), f (inactive)

Q: Name the outcome recorded for "COc1cc(Cc2cc(-c3ccc(Cl)cc3)n[nH]c2=O)ccc1O" in the assay.
Result: f

Q: Name the outcome recorded for "COc1ccc(-c2nc3sc(-c4ccccc4)c(-c4ccccc4)n3c2/C=C/C(=O)c2ccccn2)cc1" in the assay.
Result: f

Q: Name the outcome recorded for CCOC(=O)CCC(NC(=O)c1ccc(N)cc1)C(=O)OCC (stereo unspecified) in the assay.
Result: f

Q: Name the outcome recorded for "O=[P@@]1(c2ccccc2)O[C@H](COCc2ccccc2)[C@@H](OCc2ccccc2)[C@H](OCc2ccccc2)[C@H]1O" in the assay.
Result: t

Q: Name the outcome recorded for "CSCCCNC(=O)c1ccc2c(c1)/C(=C/c1[nH]c(C)cc1C)C(=O)N2" in the assay.
Result: t

----------
Tested on: EKVX NSCLC
Assay: NCI-60 one-dose screen, 48 h (100 = growth as untreated, 0 = no growth, -100 = all killed)
Conditions: 10 µM
Procedure: Growth inhibition of the EKVX human Non-Small Cell Lung tumor cell line is measured as a screen for anti-cancer activity. Cells are grown in 96 well plates and exposed to the test compound for 48 hours. Compounds are tested at a single concentration, which is 10^-5 M for most compounds. The reported endpoint is percent growth (GI% or GIPRCNT), where numbers from 0 - 100% represent growth inhibition, and numbers from -100% - 0 represent cell death. […]
The panel holds about 83,000 compounds, 20% with a hit somewhere; the sample as a whole holds those more often.
param class (str): category from growth; see ranges 0 = under 40%, 1 = from 40% up to 90%, 2 = 90% and over

Solved cases below.
COc1ccc2c(c1)N(CCO)C1=C(C(=O)OC1)C2c1ccccc1 (stereo not given)
1
COc1ccc(NC(=O)CSc2nc3ccccc3c(=O)n2CCc2ccccc2)cc1
1
CC[C@H](C)C(=O)O[C@H]1CCC=C2C=C[C@H](C)C(CCC3C[C@@H](O)CC(=O)O3)[C@H]21 (stereo not given in full)
1
CCN(CC)CCNC(=O)c1ccc(NC(C)=O)cc1
2
Cc1cs/c(=N\NC(=O)c2cc(-c3cc4ccccc4o3)nn2-c2ccccc2)n1-c1ccccc1
1

Q: Each molecule maps to one class by growth. Which class for "Clc1ccc(-c2cn(-c3ccccc3)c(-c3ccccc3)n2)c(Cl)c1" ?
Result: 1

Q: Each molecule maps to one class by growth. Which class for "Clc1cccc(-c2nc(-c3cccs3)no2)c1" ?
Result: 1

Q: Each molecule maps to one class by growth. Which class for N#CC1=C(Nc2ccccc2Cl)SC(c2ccccc2O)NC1=O (stereo not given) ?
Result: 2
